# Test system: MDA-MB-231 breast
# protocol_summary: NCI-60 one-dose screen, 48 h
# condition_context: 10 µM unless noted
This is part of a sample that, as a whole, favours compounds with a hit. Of some 83,000 tested, about 20% had one in any assay. Active and inactive are the calls of the source. How the source made its calls: active means growth percent below 10; inactive means the rest.
Bench note: report the call from label 1 (active), label 0 (inactive)

Input: What outcome does the record of this test show for C=CC(=O)N[C@H](Cc1ccc(-c2cc(Cl)cc(Cl)c2)cc1)[C@H](O)[C@@H](O)C(=O)O ?
Output: label 0

Input: What outcome does the record of this test show for Cc1ccc2c(c1)c(-c1nc(-c3c[nH]c4ncccc34)cs1)cn2C ?
Output: label 0

Input: What outcome does the record of this test show for C#Cc1cccc(NC(=O)C2CCCN(C(=O)CCl)C2)c1 (stereo not given) ?
Output: label 0

Input: What outcome does the record of this test show for CC(=O)OC(C)COc1ccc(-c2ccccc2)cc1 (stereo not given) ?
Output: label 0

Input: What outcome does the record of this test show for CCN(CC)C(=O)CCCCCn1c2ccccc2c2c3c(c4c5ccccc5[nH]c4c21)C(=O)N(O)C3=O ?
Output: label 0

Input: What outcome does the record of this test show for N#CC1=C(N)Oc2c(c(N)nn2-c2ccccc2)C1c1ccc(Cl)cc1Cl (stereo not given) ?
Output: label 0

Input: What outcome does the record of this test show for N#CCCCCCn1c2ccccc2c2c3[nH]c(=O)[nH]c(=O)c3c3c4ccccc4n(CCCCCC#N)c3c21 ?
Output: label 1

Input: What outcome does the record of this test show for NC1=C(C/C(N)=N\O)C(c2ccccc2Cl)c2c(ccc3ccccc23)O1 (stereo not given) ?
Output: label 0

Input: What outcome does the record of this test show for O=P(O)(c1ccccc1)c1ccccc1I ?
Output: label 0

Input: What outcome does the record of this test show for OCC12CCCC(CO)(COC1)C2O (stereo not given) ?
Output: label 0
